Would you kindly list GFP response vs DMSO for each of these molecules?
# experimentalProtocol: modulators of LAP4-GFP expression in yeast, primary screen, S. cerevisiae, multiplex flow cytometry (AID 1873)
# testParameters: 3 h, at 10 µM, active compounds read high
Inconclusive results are not listed.
Answer format: numeric, % implied, no suffix.

// GFP response vs DMSO lookup, molecule = CC(C)[N+]1(C)[C@@H]2CC[C@H]1CC(OC(=O)C(CO)c1ccccc1)C2 (some centres not stated) , result: 101

Note to self: GFP response vs DMSO recorded for CC(C)NNC(=O)c1ccncc1 was 114

Lookup result for COC(=O)CN1CC(=O)N(c2ccccc2)C1=S ; measured GFP response vs DMSO: 100

The value of GFP response vs DMSO measured for the molecule O=c1ccn([C@@H]2O[C@H](CO)[C@@H](O)[C@H]2O)c(=O)[nH]1 turned out to be 98.3

Form field GFP response vs DMSO, entry COc1ccc(-c2nc(C)c(C(C)=O)n2O)cc1OC : 78.1

Query Cc1c(OC(=O)CNC(=O)OC(C)(C)C)ccc2c3c(c(=O)oc12)CCC3 yields GFP response vs DMSO of 80.3

Record summary for CC(C)Oc1ccc(C(CC(=O)O)c2ccc(F)cc2)cc1 (configuration not stated) : reported GFP response vs DMSO = 113

---

# experimentalProtocol: inhibitors of CD8+ T cell-vesicle binding, pilot screen, LFA-1/ICAM-1 modulator project, MLPCN validation set, flow cytometry (AID 2523);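 further: mean PE anti-B7-1 fluorescence of CD8+ cells relative to row control; 100% = QL9-loaded vesicles with DMSO vehicle in the same plate row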
# testParameters: 2C mouse CD8+ T cells, at 7 µM, active compounds read low
quantityMeasured: vesicle binding response (%)
Report as a plain number; the unit % is understood.

Recorded result, O=C(NCCc1nc2ccccc2[nH]1)c1cccc(Br)c1 , vesicle binding response: 224

// sample O=C1NCC2=C1C(c1ccccc1)Nc1ccccc1N2 (stereo not drawn) , its vesicle binding response was 205

Field vesicle binding response (entry COCCc1ccc(OCC(O)CNC(C)C)cc1 (stereo not drawn) ) reads 212

vesicle binding response reading for Cc1ccc(C(=O)N2CC3(C(C)C)CN(C(=O)c4ccc(C)cc4)CC(C(C)C)(C2)C3=O)cc1 : 224

Looking up COc1ccc2[nH]c3c(c2c1)CCn1c-3nc2ccccc2c1=O , I found its vesicle binding response recorded as 168

According to the records, this compound N/C(=N/OS(=O)(=O)c1ccc([N+](=O)[O-])cc1)c1ccncc1 displays vesicle binding response of 135

GET /value?item= CN1CCCC(OC(=O)c2ccc3c(c2)OCCO3)C1 (stereo not drawn) &field=vesicle binding response returns 175

The value of vesicle binding response measured for the compound O=C1Nc2ccc3sc4ccccc4c3c2C1=O turned out to be 162

Measured vesicle binding response of COc1ccc(C(=O)NC(=O)NC2(C(Cl)(Cl)Cl)OCCO2)cc1 : 214

Per the records, this compound ( Clc1ccc(Cn2c(CN3CCCC3)nc3ccccc32)cc1 ) has vesicle binding response equal to 98

// recorded vesicle binding response for CC/C(=C1/C(=O)CC(C)(C)C(C(=O)OC)C1=O)N1CCCC1 (stereo not drawn) : 174

The compound listed as O=C1OCCN1/N=C/c1ccc([N+](=O)[O-])o1 has a reported vesicle binding response of 157

Entry COc1cc(/C=C(\C#N)C(=O)N2CCc3ccccc32)ccc1O ; vesicle binding response = 273

Quick note, vesicle binding response for O=C(O)C[C@@H](O)C(=O)O landed at 193

Data point: CCOc1cc2oc(=O)c3c(c2cc1Cl)CCC3 ; vesicle binding response = 165

Record CN1CCC(=C2c3ccccc3CC(=O)c3sccc32)CC1 , field vesicle binding response: 136

Input CC(C)CCOCC(=O)Nc1cccc(C(=O)O)c1 . Output vesicle binding response: 174

Memo: O=P(c1ccccc1)(c1ccccc1)c1nc(-c2ccc(Cl)cc2)oc1N1CCOCC1 , reported vesicle binding response: 148
